target: UniProtKB P25774
Parameter Measured: IC50 (pM)

Recorded results for 2 molecules are shown here.
molecule=N#CC1(NC(=O)[C@@H]2C[C@@H](S(=O)(=O)c3ccccc3Cl)C[C@H]2C(=O)N2CCOCC2)CC1 readout_unit=pM quantitative_result=900
molecule=N#CCNC(=O)[C@@H]1C[C@@H](S(=O)(=O)c2ccc(F)cc2F)C[C@H]1C(=O)N1CCOCC1 readout_unit=pM quantitative_result=800

1: CO[C@@H]1C[C@H](S(=O)(=O)c2ccc(-c3cnn(C)c3)cc2C(F)(F)F)C[C@H]1C(=O)NC1(C#N)CC1 (racemic)
2: CNC(=O)[C@@H]1C[C@H](S(=O)(=O)c2ccccc2)C[C@H]1C(=O)NC1(C#N)CC1
Query string: Which shows the larger IC50 value: 1 or 2 ? When you have decided, please share the label of that item.
Result string: 2
(2: 72500 pM, 1: 700 pM)

----------
biological target: UniProt P25774
Parameter Measured: IC50 (nM)

compound="N#CC1(NC(=O)[C@@H]2C[C@@H](S(=O)(=O)c3ccccc3Cl)C[C@H]2OCc2cc(F)c(Cl)cc2Cl)CC1 (racemic)" readout_unit=nM quantitative_result=157
compound=N#CCNC(=O)[C@@H]1C[C@@H](S(=O)(=O)c2cccc3ccccc23)C[C@H]1C(=O)N1CCOCC1 readout_unit=nM quantitative_result=0.4
compound="CC(C)O[C@@H]1C[C@H](S(=O)(=O)c2ccc(-c3cnn(C)c3)cc2C(F)(F)F)C[C@H]1C(=O)NC1(C#N)CC1 (racemic)" readout_unit=nM quantitative_result=0.2
compound="CO[C@@H]1C[C@H](S(=O)(=O)c2ccc(N3CCC(O)CC3)cc2C(F)(F)F)C[C@H]1C(=O)NC1(C#N)CC1 (racemic)" readout_unit=nM quantitative_result=0.895
compound="N#CC1(NC(=O)[C@H]2CC[C@H](S(=O)(=O)c3ccc(F)cc3Cl)C2)CC1 (racemic)" readout_unit=nM quantitative_result=385
compound=N#CC1(NC(=O)[C@@H]2C[C@@H](S(=O)(=O)c3ccc(-c4ccnc(Cl)c4)cc3Cl)C[C@H]2C(=O)N2CCC(F)(F)C2)CC1 readout_unit=nM quantitative_result=0.135

P: CC(C)(C#N)NC(=O)[C@@H]1C[C@@H](S(=O)(=O)c2ccccc2)C[C@H]1C(=O)N1CCOCC1
Q: CO[C@@H]1C[C@H](S(=O)(=O)c2ccc(Cl)cc2Cl)C[C@H]1C(=O)NC1(C#N)CC1 (racemic)
R: N#CC1(NC(=O)[C@@H]2C[C@@H](S(=O)(=O)c3ccc(N4CCN(C5CC5)CC4)cc3Cl)C[C@H]2C(=O)N2CC(F)(F)C2)CC1
S: N#CC1(NC(=O)[C@@H]2C[C@@H](S(=O)(=O)c3ccccc3)C[C@H]2C(=O)N2CCC2)CC1
T: N#CC1(NC(=O)[C@@H]2C[C@@H](S(=O)(=O)c3cccc(Br)c3)C[C@H]2C(=O)N2CCC(F)(F)C2)CC1
Query string: Arrange items by their IC50 values in increasing order. Provide the labels, sequenced as the question asks.
Result string: R, T, P, S, Q
(R: 0.385 nM, T: 0.985 nM, P: 2.5 nM, S: 9.6 nM, Q: 25 nM)

----------
target: UniProt:P25774; experiment: Cathepsin enzyme inhibition assay (fluorogenic peptide substrate cleavage); type: biochemical; details: human Cat S 1 nM; substrate Z-Val-Val-Arg-AMC 20 μM; pH 6.5; fluorescence over 20 minutes
Parameter Measured: IC50 (nM)

Recorded results for 10 compounds are shown here.
compound="N#CC1(NC(=O)[C@@H]2C[C@@H](S(=O)(=O)c3ccc(Br)cc3C(F)(F)F)C[C@H]2OC2CCC2)CC1 (racemic)" system_name=UniProt:P25774 parameter_measured=IC50 quantitative_result=3.8
compound=CCOC1CN(C(=O)[C@@H]2C[C@H](S(=O)(=O)c3ccccc3)C[C@H]2C(=O)NC2(C#N)CC2)C1 system_name=UniProt:P25774 parameter_measured=IC50 quantitative_result=4.9
compound=N#CC1(NC(=O)[C@@H]2C[C@@H](S(=O)(=O)c3ccc(F)cc3Cl)C[C@H]2COc2ccccc2)CC1 system_name=UniProt:P25774 parameter_measured=IC50 quantitative_result=3
compound="CO[C@@H]1C[C@H](S(=O)(=O)c2ccccc2C(F)(F)F)C[C@H]1C(=O)NC1(C#N)CC1 (racemic)" system_name=UniProt:P25774 parameter_measured=IC50 quantitative_result=5.8
compound="N#CC1(NC(=O)[C@H]2CC[C@H](S(=O)(=O)c3ccc(-n4cccn4)cc3Cl)C2)CC1 (single isomer, unassigned)" system_name=UniProt:P25774 parameter_measured=IC50 quantitative_result=170
compound=Cn1cc(-c2ccc(S(=O)(=O)[C@@H]3C[C@@H](C(=O)NC4(C#N)CC4)[C@H](C(=O)N4CCC(F)(F)C4)C3)c(Cl)c2)cn1 system_name=UniProt:P25774 parameter_measured=IC50 quantitative_result=0.14
compound="N#CC1(NC(=O)C2CC(S(=O)(=O)c3ccc(N4CCC(F)(F)C4)cc3C(F)(F)F)CC2C(=O)N2CC(F)(F)C2)CC1 (stereo not shown)" system_name=UniProt:P25774 parameter_measured=IC50 quantitative_result=1.2
compound="CO[C@@H]1C[C@H](S(=O)(=O)c2ccc(-c3cc(C)sc3C)cc2C(F)(F)F)C[C@H]1C(=O)NC1(C#N)CC1 (racemic)" system_name=UniProt:P25774 parameter_measured=IC50 quantitative_result=0.2
compound=N#CC1(NC(=O)[C@@H]2C[C@@H](S(=O)(=O)c3ccc(Br)cc3C(F)(F)F)C[C@H]2COC=O)CC1 system_name=UniProt:P25774 parameter_measured=IC50 quantitative_result=4.2
compound=N#CC1(NC(=O)[C@@H]2C[C@@H](S(=O)(=O)c3ccccc3)C[C@H]2C(=O)N2C[C@H]3CC[C@@H](C2)O3)CC1 system_name=UniProt:P25774 parameter_measured=IC50 quantitative_result=1.1

1: CO[C@@H]1C[C@H](S(=O)(=O)c2ccc(-c3ccnc(C)c3)cc2C(F)(F)F)C[C@H]1C(=O)NC1(C#N)CC1 [Example 139]
2: N#CC1(NC(=O)[C@@H]2C[C@@H](S(=O)(=O)c3ccccc3Cl)C[C@H]2OCc2ccc(Cl)cc2C(F)(F)F)CC1 (racemic)
3: COC[C@@H]1C[C@H](S(=O)(=O)c2ccccc2Cl)C[C@H]1C(=O)NCC#N (single isomer, unassigned)
Query string: Arrange items by their IC50 values in increasing order. Provide the labels, sequenced as the question asks.
Result string: 1, 2, 3
(1: 0.3 nM, 2: 2.99 nM, 3: 20.7 nM)

P: N#CC1(NC(=O)C2CC(S(=O)(=O)c3ccc(-n4cccn4)cc3C(F)(F)F)CC2C(=O)N2CC(F)(F)C2)CC1 (stereo not shown)
Q: CO[C@@H]1C[C@H](S(=O)(=O)c2ccc(-c3ccccc3)cc2C(F)(F)F)C[C@H]1C(=O)NC1(C#N)CC1 (racemic)
Query string: Which shows the larger IC50 value: P or Q ? When you have decided, please share the label of that item.
Result string: Q

A: Cc1cccc(S(=O)(=O)[C@@H]2C[C@@H](C(=O)NC3(C#N)CC3)[C@H](C(=O)N3CCC(F)(F)C3)C2)c1
B: N#CCNC(=O)[C@H]1CC[C@H](S(=O)(=O)c2ccc(F)cc2Cl)C1 (racemic)
C: CO[C@@H]1C[C@H](S(=O)(=O)c2ccc(-n3cccn3)cc2Cl)C[C@H]1C(=O)NC1(C#N)CC1 (racemic)
Query string: Arrange by IC50, high to low. Provide the labels, sequenced as the question asks.
Result string: B, C, A
(B: 683 nM, C: 4 nM, A: 0.325 nM)

----------
pIC50: −log10 of the molar value.
Assay read-out pIC50; system under study: human Cat S (Homo sapiens).
Parameter Measured: pIC50

molecule="N#CC1(NC(=O)[C@@H]2C[C@@H](S(=O)(=O)c3ccc(Br)cc3C(F)(F)F)C[C@H]2OC2CCS(=O)(=O)CC2)CC1 (racemic)" parameter_measured=pIC50 quantitative_result=8.88

1: CO[C@@H]1C[C@H](S(=O)(=O)c2ccc(-c3ccnn3C)cc2C(F)(F)F)C[C@H]1C(=O)NC1(C#N)CC1 (racemic)
2: N#CC1(NC(=O)[C@@H]2C[C@H](S(=O)(=O)c3ccccc3Cl)C[C@H]2CN2CCC(c3ccc(F)cc3)CC2)CC1
Query string: Which shows the larger pIC50 value: 1 or 2 ? When you have decided, please share the label of that item.
Result string: 1
(1: 8.92, 2: 6.29)

----------
Assay read-out IC50; system under study: human Cat S (Homo sapiens, UniProt P25774).
Sequence (P25774 115-331): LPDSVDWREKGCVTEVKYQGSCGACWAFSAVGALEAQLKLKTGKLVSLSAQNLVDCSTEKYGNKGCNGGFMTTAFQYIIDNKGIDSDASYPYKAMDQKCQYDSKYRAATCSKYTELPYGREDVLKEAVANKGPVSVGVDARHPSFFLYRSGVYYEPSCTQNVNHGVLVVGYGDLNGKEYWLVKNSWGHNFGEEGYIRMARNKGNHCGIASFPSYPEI
Parameter Measured: IC50 (nM)

Recorded results for 3 molecules are shown here.
molecule="C[C@H](Oc1ccc(S(=O)(=O)[C@H]2CC[C@H](C(=O)NCC#N)C2)c(Cl)c1)C(F)(F)F (racemic)" parameter_measured=IC50 quantitative_result=1030
molecule="Cc1cc(-c2ccc(S(=O)(=O)[C@H]3C[C@@H](OC4CCS(=O)(=O)CC4)[C@H](C(=O)NC4(C#N)CC4)C3)c(C(F)(F)F)c2)ccn1 (racemic)" parameter_measured=IC50 quantitative_result=0.2
molecule=N#CC1(NC(=O)[C@@H]2C[C@@H](S(=O)(=O)c3ccc(-c4cncc(-c5cnc(Cl)cn5)n4)cc3C(F)(F)F)C[C@H]2C(=O)N2CC(F)(F)C2)CC1 parameter_measured=IC50 quantitative_result=0.6

P: N#CCNC(=O)[C@@H]1C[C@@H](S(=O)(=O)c2ccccc2Cl)C[C@H]1COc1ccc(Cl)cc1 (single isomer, unassigned)
Q: CCOC(=O)N1CCC(C#N)(NC(=O)[C@@H]2C[C@@H](S(=O)(=O)c3ccccc3C(F)(F)F)C[C@H]2OCc2ccc(Cl)cc2)CC1 (racemic)
Query string: Please compare: P and Q . Report which one has the smaller IC50 value. When you have decided, please share the label of that item.
Result string: P
(P: 2.2 nM, Q: 12 nM)
